# target-or-system: KAT-7 (Homo sapiens (Human))
# assay-name: KAT-7 biochemical inhibition assay (SAMDI mass spectrometry)
# Procedure: KAT-7. Enzyme assay buffer was 50 mM Tris pH 8.0, 0.002% Tween20, 0.005% bovine skin gelatin, and 1 mM dithiothreitol (DTT). For determination of IC50 values, compounds were serially diluted with 2% (v/v) DMSO in the final reaction, pre-incubating each dilution of each compound with 40 μL of assay buffer containing KAT-7 enzyme (6 nM final concentration). 10 μL of assay buffer containing 1 μM peptide substrate and 2 μM acetyl coenzyme A (final concentrations) was added. […]
pIC50: −log10 of the molar value.
The molecules listed here are annotated with their pIC50.

Illustrative cases are given below, each with its answer.
Cn1cnc(-c2cc(Cl)c(F)c(C(=O)NNS(=O)(=O)CC3CCC(F)(F)CC3)c2)c1 :: > 5.00
Cn1cnc(-c2cc(Cl)c(F)c(C(=O)NNS(=O)(=O)C[C@@H]3CCN(C(=O)OC(C)(C)C)C3)c2)c1 :: > 5.00
O=C(NNS(=O)(=O)CC1CCOCC1)c1cc(-n2ccnn2)cc(Cl)c1F :: 4.30 to 5.00
Cn1cnc(-c2cc(Cl)c(F)c(C(=O)NNS(=O)(=O)C[C@H]3CCC[C@@H](OCc4ccccc4)C3)c2)c1 :: > 5.00
COc1ccc(CN(C)C(=O)N[C@H]2C[C@H](CS(=O)(=O)NNC(=O)c3cc(-c4cn(C)cn4)cc(Cl)c3F)C2)cc1 :: > 5.00
O=C(NNS(=O)(=O)CC1CCOCC1)c1cc(-c2cscn2)cc(Cl)c1F :: > 5.00
CCO[C@@H]1CCC[C@H](CS(=O)(=O)NNC(=O)c2cc(-c3cn(C)cn3)cc(Cl)c2F)C1 :: > 5.00
Cc1ncn(-c2cc(Cl)c(F)c(C(=O)NNS(=O)(=O)C3CCOCC3)c2)n1 :: 4.30 to 5.00
CC(C)NC(=O)N1CC(CS(=O)(=O)NNC(=O)c2cc(-c3cn(C)cn3)cc(Cl)c2F)C1 :: > 5.00
Cn1cnc(-c2cc(Cl)c(F)c(C(=O)NNS(=O)(=O)C3COC3)c2)c1 :: > 5.00

## Task Provide KAT-7 (Homo sapiens (Human)) pIC50 reading for Cn1cnc(-c2cc(Cl)c(F)c(C(=O)NNS(=O)(=O)CC3CN(C(=O)N4CCC4)C3)c2)c1 .
## Result > 5.00

## Task Provide KAT-7 (Homo sapiens (Human)) pIC50 reading for Cn1cnc(-c2cc(Cl)c(F)c(C(=O)NNS(=O)(=O)C[C@H]3CC[C@H](N)CC3)c2)c1 .
## Result > 5.00

* * *

# target-or-system: KAT-5 (Homo sapiens (Human))
# Sequence (Q92993 other isoform, or with tags, fused parts or gaps): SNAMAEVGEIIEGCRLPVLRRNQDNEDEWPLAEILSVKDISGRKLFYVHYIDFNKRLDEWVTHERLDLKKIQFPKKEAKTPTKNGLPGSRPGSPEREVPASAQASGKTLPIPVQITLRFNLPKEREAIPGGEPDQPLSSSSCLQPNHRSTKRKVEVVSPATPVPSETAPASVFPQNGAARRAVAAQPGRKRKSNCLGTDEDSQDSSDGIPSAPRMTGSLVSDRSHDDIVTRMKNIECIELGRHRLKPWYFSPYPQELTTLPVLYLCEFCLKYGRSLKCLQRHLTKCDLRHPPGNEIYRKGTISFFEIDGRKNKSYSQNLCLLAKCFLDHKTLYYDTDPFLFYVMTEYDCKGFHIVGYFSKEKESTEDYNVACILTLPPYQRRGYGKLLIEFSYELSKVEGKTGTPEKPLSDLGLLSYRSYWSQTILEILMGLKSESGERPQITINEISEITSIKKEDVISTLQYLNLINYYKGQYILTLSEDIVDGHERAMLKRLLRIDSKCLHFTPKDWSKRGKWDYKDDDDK
# assay-name: KAT-5 biochemical inhibition assay (SAMDI mass spectrometry)
pIC50: −log10 of the molar value.
measurement-type: pIC50

Cn1cnc(-c2cc(Cl)c(F)c(C(=O)NNS(=O)(=O)C[C@H]3CC[C@H]4CC[C@@H]3N4)c2)c1 [Compound I-261] :: 4.30 to 5.00
CN(C)C(=O)N[C@H]1C[C@H](CS(=O)(=O)NNC(=O)c2cc(-c3cn(C)cn3)cc(Cl)c2F)C1 [Compound I-180] :: > 5.00
CN(C)C(=O)N1CC(CS(=O)(=O)NNC(=O)c2cc(-c3cn(C)cn3)cc(Cl)c2F)C1 [Compound I-167] :: 4.30 to 5.00

Now consider a different compound.
## Task Complete the entry with pIC50 for O=C(NNS(=O)(=O)CC1CCOCC1)c1cc(-c2cocn2)cc(Cl)c1F [Compound I-68]
## Result > 5.00

* * *

# target-or-system: UniProt:Q92794
# assay-name: KAT-6A biochemical inhibition assay (SAMDI mass spectrometry)
The compounds listed here are annotated with their IC50.

Illustrative cases are given below, each with its answer.
Cn1cnc(-c2cc(Cl)c(F)c(C(=O)NNS(=O)(=O)CC3CCCC(NC(=O)Cc4ccncc4)C3)c2)c1 (stereo not drawn) :: < 10 µM
CCC(=O)N1CCC(CS(=O)(=O)NNC(=O)c2cc(-c3cn(C)cn3)cc(Cl)c2F)C1 (stereo not drawn) :: 10 to 50 µM
Cn1cnc(-c2cc(Cl)c(F)c(C(=O)NNS(=O)(=O)CC3CN(C(=O)OC(C)(C)C)C3)c2)c1 :: < 10 µM

## Task Complete the entry with IC50 for Cc1cc(-c2cn(C)cn2)cc(C(=O)NNS(=O)(=O)C2CCCCC2)c1F
## Result 10 to 50 µM

## Task Complete the entry with IC50 for CNC(=O)N1CCC(CS(=O)(=O)NNC(=O)c2cc(-c3cn(C)cn3)cc(Cl)c2F)C1 (stereo not drawn)
## Result 10 to 50 µM

## Task Complete the entry with IC50 for CN1CCN([C@H]2C[C@H](CS(=O)(=O)NNC(=O)c3cc(-c4cn(C)cn4)cc(Cl)c3F)C2)C1=O
## Result < 10 µM

* * *

# target-or-system: KAT-7 (Homo sapiens (Human), UniProt O95251)
# Sequence (O95251 other isoform, or with tags, fused parts or gaps): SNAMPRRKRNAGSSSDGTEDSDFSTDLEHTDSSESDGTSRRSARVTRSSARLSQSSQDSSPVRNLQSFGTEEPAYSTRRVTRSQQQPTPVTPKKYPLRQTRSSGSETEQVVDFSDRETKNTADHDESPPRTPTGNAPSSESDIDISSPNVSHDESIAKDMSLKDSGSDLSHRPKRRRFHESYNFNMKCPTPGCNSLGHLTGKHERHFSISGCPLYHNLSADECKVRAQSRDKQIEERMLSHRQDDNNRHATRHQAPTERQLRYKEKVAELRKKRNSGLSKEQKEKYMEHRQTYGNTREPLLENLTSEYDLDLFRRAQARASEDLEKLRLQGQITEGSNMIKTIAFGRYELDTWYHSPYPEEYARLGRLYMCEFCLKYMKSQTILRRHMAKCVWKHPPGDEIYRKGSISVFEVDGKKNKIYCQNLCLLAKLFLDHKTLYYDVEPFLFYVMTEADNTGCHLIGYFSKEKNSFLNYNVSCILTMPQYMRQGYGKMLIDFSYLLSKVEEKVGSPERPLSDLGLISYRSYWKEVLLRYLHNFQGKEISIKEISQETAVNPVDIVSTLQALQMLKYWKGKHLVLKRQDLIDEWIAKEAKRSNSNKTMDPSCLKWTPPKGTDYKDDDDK
# assay-name: KAT-7 biochemical inhibition assay (SAMDI mass spectrometry)
The compounds listed here are annotated with their IC50.

Illustrative cases are given below, each with its answer.
COCCn1nc(-c2cc(Cl)c(F)c(C(=O)NNS(=O)(=O)CC3CCCCC3)c2)cc1C :: < 10 µM
Cn1cnc(-c2cc(Cl)c(F)c(C(=O)NNS(=O)(=O)c3ccc(F)cc3)c2)c1 :: < 10 µM
CN(C)C(=O)NC1CCC(CS(=O)(=O)NNC(=O)c2cc(-c3cn(C)cn3)cc(Cl)c2F)C1 (stereo not shown) :: < 10 µM

Now consider a different compound.
## Task Complete the entry with IC50 for CN(C)C(=O)N(C)C1CCCC(CS(=O)(=O)NNC(=O)c2cc(-c3cn(C)cn3)cc(Cl)c2F)C1 (stereo not shown)
## Result < 10 µM

* * *

# target-or-system: KAT-6A (Homo sapiens (Human), UniProt Q92794)
# Sequence (Q92794 other isoform, or with tags, fused parts or gaps): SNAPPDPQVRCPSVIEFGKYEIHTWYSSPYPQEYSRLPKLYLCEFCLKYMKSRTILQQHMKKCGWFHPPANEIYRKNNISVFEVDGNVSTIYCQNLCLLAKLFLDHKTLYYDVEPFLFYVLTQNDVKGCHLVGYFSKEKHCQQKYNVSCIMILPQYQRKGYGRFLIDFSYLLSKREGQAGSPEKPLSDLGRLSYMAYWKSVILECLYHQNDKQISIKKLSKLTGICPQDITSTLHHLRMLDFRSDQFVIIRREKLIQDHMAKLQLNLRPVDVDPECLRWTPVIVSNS
# assay-name: KAT-6A biochemical inhibition assay (SAMDI mass spectrometry)
measurement-type: IC50

Cn1cnc(-c2cc(Cl)c(F)c(C(=O)NNS(=O)(=O)CC3CCCC(NC(=O)Cc4ccccc4)C3)c2)c1 (stereo not shown) [Compound I-231] :: < 10 µM
Cn1cnc(-c2cc(Cl)c(F)c(C(=O)NNS(=O)(=O)C3CCCC3)c2)c1 [Compound I-15] :: 50 to 100 µM
COCCc1cn(Cc2ccc(OC)cc2)cc1-c1cc(Cl)c(F)c(C(=O)NNS(=O)(=O)CC2CCOCC2)c1 [Compound I-436] :: > 100 µM
CCCS(=O)(=O)N1CCC(CS(=O)(=O)NNC(=O)c2cc(-c3cn(C)cn3)cc(Cl)c2F)C1 (stereo not shown) [Compound I-85] :: < 10 µM
COCCOC1CCC(CS(=O)(=O)NNC(=O)c2cc(-c3cn(C)cn3)cc(Cl)c2F)CC1 (stereo not shown) [Compound I-463] :: < 10 µM
O=C(NNS(=O)(=O)CC1CCCCC1)c1cc(-n2cccn2)cc(Cl)c1F [Compound I-34] :: < 10 µM

Now consider a different compound.
## Task Complete the entry with IC50 for CCNC(=O)N(C)[C@H]1CC[C@H](CS(=O)(=O)NNC(=O)c2cc(-c3cn(C)cn3)cc(Cl)c2F)CC1 [Compound I-338]
## Result < 10 µM

* * *

# target-or-system: KAT-5 (Homo sapiens (Human))
# assay-name: KAT-5 biochemical inhibition assay (SAMDI mass spectrometry)
pIC50: −log10 of the molar value.
The molecules listed here are annotated with their pIC50.

Illustrative cases are given below, each with its answer.
Cn1cc(-c2cc(Cl)c(F)c(C(=O)NNS(=O)(=O)CC3CCOCC3)c2)nn1 :: 4.30 to 5.00
COc1cccc(S(=O)(=O)NNC(=O)c2cc(-c3cn(C)cn3)cc(Cl)c2F)c1 :: > 5.00

## Task Complete the entry with pIC50 for Cn1cnc(-c2cc(Cl)c(F)c(C(=O)NNS(=O)(=O)CC3CCC(NC(N)=O)C3)c2)c1 (stereo not shown)
## Result > 5.00

## Task Complete the entry with pIC50 for Cn1cnc(-c2cc(Cl)c(F)c(C(=O)NNS(=O)(=O)C[C@H]3CCC[C@H](N)C3)c2)c1
## Result 4.30 to 5.00

## Task Complete the entry with pIC50 for CC1CCC(CS(=O)(=O)NNC(=O)c2cc(-c3cn(C)cn3)cc(Cl)c2F)CC1 (stereo not shown)
## Result > 5.00

## Task Complete the entry with pIC50 for CCNC(=O)N(C)C1CCCC(CS(=O)(=O)NNC(=O)c2cc(-c3cn(C)cn3)cc(Cl)c2F)C1 (stereo not shown)
## Result > 5.00

## Task Complete the entry with pIC50 for Cn1cnc(-c2cc(Cl)c(F)c(C(=O)NNS(=O)(=O)CC3CCCC(S(=O)(=O)C4CCC4)C3)c2)c1 (stereo not shown)
## Result > 5.00
